# target system: human GPR84 receptor (Homo sapiens, UniProt Q9NQS5)
# Construct: host or cells: HEK293, transient transfection
# Sequence (Q9NQS5 whole entry): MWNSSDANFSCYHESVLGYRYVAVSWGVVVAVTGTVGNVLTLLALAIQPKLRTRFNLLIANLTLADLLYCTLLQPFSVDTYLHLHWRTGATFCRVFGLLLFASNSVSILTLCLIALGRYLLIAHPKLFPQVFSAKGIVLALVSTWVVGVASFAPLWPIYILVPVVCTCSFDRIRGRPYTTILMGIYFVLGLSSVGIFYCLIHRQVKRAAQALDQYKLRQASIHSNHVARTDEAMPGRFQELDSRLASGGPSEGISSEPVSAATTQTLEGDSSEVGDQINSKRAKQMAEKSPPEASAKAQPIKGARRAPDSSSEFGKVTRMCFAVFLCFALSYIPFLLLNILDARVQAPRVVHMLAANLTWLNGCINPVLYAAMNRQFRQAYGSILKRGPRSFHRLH
# protocol summary: Gαi biosensor BRET assay in HEK293 cells (antagonism of ZQ-16)
# Type: cell-based
# experimental context: HEK293, single concentration 10 μM (designated F)
Below: a set of entries, each annotated with reported inhibition at 10 µM.

Reference set, count: 5
| compound | inhibition at 10 µM |
| --- | --- |
| C(#CC1CC1)c1ccc(-c2cn(CCOCC3COCCO3)nn2)cc1 (centres unmarked) [Compound I-93] | ≤ 25% |
| CCc1cc(C#CCN2CC(C)(C)C2)cnc1-c1cn(C[C@H]2CCCCO2)nn1 [Compound I-277] | > 75% |
| CCc1cc(N2CC(C)(CO)C2)cnc1-c1cn(CC2CC(C)(C)CO2)nn1 (centres unmarked) [Compound I-500] | > 75% |
| CC1(C)COC(Cn2cc(-c3ncc(C#CC4CC4)cc3CC(F)(F)F)nn2)OC1 [Compound I-750] | > 75% |
| CC(=O)NCC1(C)CN(c2ccc(-c3cn(CC4CCCCO4)nn3)c(C)c2)C1 (centres unmarked) [Compound I-447] | 25 to 50% |

Query :: Supply measured inhibition at 10 µM of CN(C)c1cc(N2CC(C)(CO)C2)ccc1-c1cn(CC2OCC3(CCC3)O2)nn1 (centres unmarked) [Compound I-728] in your reply.
Result :: > 75%

Query :: Identify inhibition at 10 µM associated with the compound Cc1ccccc1-c1cn(CC#Cc2cnc(-c3cn(CC4CCCCO4)nn3)c(C)c2)nn1 (centres unmarked) [Compound I-734]
Result :: > 75%
